Tested on: C32 (Melanoma)
run description: combination Emax (second highest fraction inhibited in the dose matrix, 72 h); higher = more inhibition; extreme values may be limits of the assay
As shown below, each of these compounds has a reported combination Emax value.
Provide a numeric answer; units are not to be included.

Some solved cases for reference:
Asked: State its combination Emax for this compound: Cc1c2c(nn1C)CSCc1cc(n(C)n1)CSc1cc(c3ccccc3c1)OCCCc1c(C(=O)O)n(C)c3c-2c(Cl)ccc13 [AZD5991] + C=CCn1c(=O)c2cnc(Nc3ccc(N4CCN(C)CC4)cc3)nc2n1-c1cccc(C(C)(C)O)n1 [AZD1775] (first compound max 1 µM, partner max 1 µM)
Given back: 0.568

Asked: Look up and report measured combination Emax for this entry: N#Cc1cnc(Nc2cc(NC[C@H]3CNCCO3)c(C(F)(F)F)cn2)cn1 [SRA737] + Nc1ccn([C@@H]2O[C@H](CO)[C@@H](O)C2(F)F)c(=O)n1 [Gemcitabine] (first compound max 10 µM, 7x7, partner max 0.3 µM)
Given back: 0.724

Field: next compound
Asked: Look up and report measured combination Emax for this entry: CN(CCO)CC[C@H](CSc1ccccc1)Nc1ccc(S(=O)(=O)NC(=O)c2ccc(N3CCC([C@@H](O)c4ccccc4-c4ccc(Cl)cc4)CC3)cc2)cc1S(=O)(=O)C(F)(F)F [AZD4320] + Nc1ccn([C@@H]2O[C@H](CO)[C@@H](O)C2(F)F)c(=O)n1 [Gemcitabine] (first compound max 1 µM, 7x7, partner max 0.3 µM)
Given back: 0.805

* * *

Test system: RVH-421 (Melanoma)
run description: combination Emax (second highest fraction inhibited in the dose matrix, 72 h); higher = more inhibition; extreme values may be limits of the assay
Class boundaries, taken from values of combination Emax, are as follows: bottom = under 0.2, middle = from 0.2 up to 0.3, top = 0.3 and over

Worked examples, 8 molecules total:
Asked: In plain terms, what class is CCc1c2c(nc3ccc(O)cc13)-c1cc3c(c(=O)n1C2)COC(=O)[C@]3(O)CC [SN-38] + O=C(c1cc(Cc2n[nH]c(=O)c3ccccc23)ccc1F)N1CCN(C(=O)C2CC2)CC1 [Olaparib] (first compound max 0.3 µM, 7x7, partner max 10 µM) ?
Given back: middle

Asked: Where would COc1cccc(OCCCN)c1-c1cc(Nc2cnc(C#N)cn2)n[nH]1 [Prexasertib] + C[C@@H]1COCCN1C2=NC(=NC(=C2)C3(CC3)[S@](=N)(=O)C)C4=C5C=CNC5=NC=C4 [AZD6738] (first compound max 1 µM, 7x7, partner max 10 µM) land among the classes by reported combination Emax?
Given back: middle

Asked: Which category does the recorded combination Emax put COc1cccc(OCCCN)c1-c1cc(Nc2cnc(C#N)cn2)n[nH]1 [Prexasertib] + CN(C)CCCOc1ccc(-c2ccc3ncc4c(c3c2)n(C2CCOCC2)c(=O)n4C)cn1 [AZD0156] (first compound max 1 µM, 7x7, partner max 1 µM) in?
Given back: top

Asked: Which category does the recorded combination Emax put CCN(CCO)CCCOc1ccc2c(Nc3cc(CC(=O)Nc4cccc(F)c4)[nH]n3)ncnc2c1 [AZD2811] + C[C@@H]1COCCN1C2=NC(=NC(=C2)C3(CC3)[S@](=N)(=O)C)C4=C5C=CNC5=NC=C4 [AZD6738] (first compound max 1 µM, 7x7, partner max 10 µM) in?
Given back: bottom

Asked: Into which category would you place C=CCn1c(=O)c2cnc(Nc3ccc(N4CCN(C)CC4)cc3)nc2n1-c1cccc(C(C)(C)O)n1 [AZD1775] + C[C@@H]1COCCN1C2=NC(=NC(=C2)C3(CC3)[S@](=N)(=O)C)C4=C5C=CNC5=NC=C4 [AZD6738] (first compound max 1 µM, partner max 10 µM) ?
Given back: middle

Asked: Any idea which band COc1cc2c(cc1OCCCCCOc1cc3c(cc1OC)C(=O)N1C=C(C)C[C@H]1C=N3)N=C[C@@H]1CC(C)=CN1C2=O [SG3199] + O=C(c1cc(Cc2n[nH]c(=O)c3ccccc23)ccc1F)N1CCN(C(=O)C2CC2)CC1 [Olaparib] (first compound max 0.001 µM, 7x7, partner max 10 µM) is in?
Given back: bottom

Asked: Band for CN(CCO)CC[C@H](CSc1ccccc1)Nc1ccc(S(=O)(=O)NC(=O)c2ccc(N3CCC([C@@H](O)c4ccccc4-c4ccc(Cl)cc4)CC3)cc2)cc1S(=O)(=O)C(F)(F)F [AZD4320] + C[C@@H]1COCCN1C2=NC(=NC(=C2)C3(CC3)[S@](=N)(=O)C)C4=C5C=CNC5=NC=C4 [AZD6738] (first compound max 1 µM, 7x7, partner max 10 µM) ?
Given back: top

Asked: Form field 'band' for Cc1c2c(nn1C)CSCc1cc(n(C)n1)CSc1cc(c3ccccc3c1)OCCCc1c(C(=O)O)n(C)c3c-2c(Cl)ccc13 [AZD5991] + CCN(CCO)CCCOc1ccc2c(Nc3cc(CC(=O)Nc4cccc(F)c4)[nH]n3)ncnc2c1 [AZD2811] (first compound max 1 µM, 7x7, partner max 1 µM)
Given back: middle

Further cases:
Asked: Which class does Cc1c2c(nn1C)CSCc1cc(n(C)n1)CSc1cc(c3ccccc3c1)OCCCc1c(C(=O)O)n(C)c3c-2c(Cl)ccc13 [AZD5991] + CN(C)CCCOc1ccc(-c2ccc3ncc4c(c3c2)n(C2CCOCC2)c(=O)n4C)cn1 [AZD0156] (first compound max 1 µM, 7x7, partner max 1 µM) fall in?
Given back: middle

Asked: In plain terms, what class is CC1(C)CCC(CN2CCN(c3ccc(C(=O)NS(=O)(=O)c4ccc(NCC5CCOCC5)c([N+](=O)[O-])c4)c(Oc4cnc5[nH]ccc5c4)c3)CC2)=C(c2ccc(Cl)cc2)C1 [Venetoclax] + COc1cc(Nc2ncc3c(n2)-c2ccc(Cl)cc2C(c2c(F)cccc2OC)=NC3)ccc1C(=O)O [Alisertib] (first compound max 1 µM, 7x7, partner max 10 µM) ?
Given back: bottom

Asked: // bin(item) where item = CC1(C)CCC(CN2CCN(c3ccc(C(=O)NS(=O)(=O)c4ccc(NCC5CCOCC5)c([N+](=O)[O-])c4)c(Oc4cnc5[nH]ccc5c4)c3)CC2)=C(c2ccc(Cl)cc2)C1 [Venetoclax] + C[C@@H]1COCCN1C2=NC(=NC(=C2)C3(CC3)[S@](=N)(=O)C)C4=C5C=CNC5=NC=C4 [AZD6738] (first compound max 1 µM, 7x7, partner max 10 µM)
Given back: middle
